System: Serotonin 2 (5-HT2) receptor (Rattus norvegicus, UniProt P30994+P08909+P14842) | Read-out: Ki
endpoint: Ki (nM)

> print(dat)
                                   compound  units.symbol  quantitative.result
1  COc1cc(CC(C)N)c(OC)cc1F (stereo not drawn)            nM                 1110
2  CCCN(CCC)C1CCc2cccc(O)c2C1 (stereo not drawn)            nM                 5500
3  CCCc1cc(OC)c(CC(C)N)cc1OC (stereo not drawn)            nM                   69

###

Listed here are molecules together with their documented pKi.
Biological target: 5-hydroxytryptamine receptor 1A (Rattus norvegicus)
Sequence (P19327 whole entry): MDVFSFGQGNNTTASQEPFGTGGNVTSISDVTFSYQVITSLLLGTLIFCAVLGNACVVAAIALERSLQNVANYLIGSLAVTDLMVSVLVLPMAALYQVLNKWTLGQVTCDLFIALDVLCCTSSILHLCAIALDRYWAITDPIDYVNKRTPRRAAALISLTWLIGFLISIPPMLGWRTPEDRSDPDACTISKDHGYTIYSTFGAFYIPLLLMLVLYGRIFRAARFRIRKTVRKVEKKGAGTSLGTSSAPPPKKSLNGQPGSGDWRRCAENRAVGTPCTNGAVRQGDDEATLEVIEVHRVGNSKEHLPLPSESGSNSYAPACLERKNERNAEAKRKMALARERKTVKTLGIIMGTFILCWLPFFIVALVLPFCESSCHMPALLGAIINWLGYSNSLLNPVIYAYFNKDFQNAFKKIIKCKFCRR
pKi: −log10 of the molar value.
endpoint: pKi

> print(dat)
                                   molecule  quantitative.result
1               COc1ccc2[nH]cc(CCN(C)C)c2c1                 7.70
2  O=C(CCCN1CCC2(CC1)C(=O)NCN2c1ccccc1)c1ccc(F)cc1                 7.40
3                   CNCCc1c[nH]c2ccc(O)cc12                 8.30
4  CN1C[C@H](CNC(=O)OCc2ccccc2)C[C@@H]2c3cccc4c3c(cn4C)C[C@H]21                 8.22
5  CC(C)NCC(O)COc1cccc2[nH]ccc12 (single isomer, unassigned; (-))                 7.70
6  CN1C[C@@H](NS(=O)(=O)N(C)C)C[C@@H]2c3cccc4c3c(cn4C)C[C@H]21                 6.52
7                FC(F)(F)c1cccc(N2CCNCC2)c1                 5.71
8  O=C(c1ccc(F)cc1)C1CCN(CCn2c(=O)[nH]c3ccccc3c2=O)CC1                 5.72
9                      Clc1cccc(N2CCNCC2)c1                 5.62

###

System: Serotonin 1 (5-HT1) receptor (Rattus norvegicus, UniProt P28564+P30940+P19327+P28565) | Read-out: Ki
endpoint: Ki (µM)

> print(dat)
                                   compound  units.symbol  quantitative.result
1  COc1cc(C[C@@H](C)N)c(OC)cc1Br (stereo in doubt; form 1)            µM                  4.2
2  COc1cc([N+](=O)[O-])c(OC)cc1CC(C)N (stereo unspecified)            µM                 14.1
3  CCc1cc(OC)c(CC(C)N)cc1OC (stereo unspecified)            µM                 4.57
4                FC(F)(F)c1cccc(N2CCNCC2)c1            µM                 0.02
5               COc1cc(C[C@H](C)N)c(OC)cc1I            µM                 0.92
6   COc1cc([N+](=O)[O-])c(OC)cc1C[C@@H](C)N            µM                 13.2
